Molecular target: T1, human IL-2Rβ (human, UniProt P14784 27-240, limits assumed)
T1 construct: also called hIL-2Rβ; IL-2 receptor beta
T1 sequence (looked up): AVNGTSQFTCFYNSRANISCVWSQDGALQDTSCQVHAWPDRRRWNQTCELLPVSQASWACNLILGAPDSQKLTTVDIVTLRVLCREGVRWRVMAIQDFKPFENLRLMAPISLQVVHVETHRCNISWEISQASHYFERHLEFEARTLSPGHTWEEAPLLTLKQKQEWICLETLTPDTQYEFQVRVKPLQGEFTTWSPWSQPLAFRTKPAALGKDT
Assay: SPR, steady state
MEASURE: Kd (nM)
Quick note: give the figure in nM, leave out the unit.

INSERT INTO assay_data (binder, measure, reported_measurement) VALUES
  ('hIL-15 V49R/K11V (ligand) NWVNVISDLKVIEDLIQSMHIDATLYTESDVHPSCKVTAMKCFLLELQRISLESGDASIHDTVENLIILANNSLSSNGNVTESGCKECEELEEKNIKEFLQSFVHIVQMFINTGGGGSGHHHHHHHHGGGLNDIFEAQKIEWHE', 'Kd', 110);

Read the next record carefully.
Output measured Kd for this item: hIL-15 V49R/D30V (ligand) NWVNVISDLKKIEDLIQSMHIDATLYTESVVHPSCKVTAMKCFLLELQRISLESGDASIHDTVENLIILANNSLSSNGNVTESGCKECEELEEKNIKEFLQSFVHIVQMFINTGGGGSGHHHHHHHHGGGLNDIFEAQKIEWHE
258

Origin of the recorded values: patent US20210324028A1
